assay: Mouse Pharmacokinetic Study (Example 1C); assay type: in vivo; details: mouse; CD-1 mice, iv, 3 mg/kg; plasma
Quantity: AUC(0-inf) (ng·h/mL)

Completed entries (count: 3):
[[record]]
molecule = "C[C@@H](O)c1cnn2c(N[C@@H]3CCc4[nH]c5ccccc5c4C3)cc(-c3cncc(F)c3)nc12 [I-198a]"
endpoint_result = 772

[[record]]
molecule = "Fc1cncc(-c2nc(N[C@@H]3CCc4[nH]c5ccccc5c4C3)c3ncccc3n2)c1 [I-126]"
endpoint_result = 1650

[[record]]
molecule = "CC(C)c1cnn2c(N[C@H]3CCc4[nH]ccc4C3)nc(-c3cncc(F)c3)nc12 [I-137a]"
endpoint_result = 2010


(I) CC(C)c1cnn2c(N[C@@H]3CCc4[nH]c5ccccc5c4C3)cc(-c3cncc(F)c3)nc12 [I-75a]
(II) Fc1cncc(-c2cc(NCCc3c[nH]c4ccccc34)n3ncc(Br)c3n2)c1 [I-39]
(III) Cc1[nH]c2c(F)cc(F)cc2c1CCNc1cc(-c2cncc(F)c2)nc2c(C(C)C)cnn12 [I-107]
### Prompt Rank order required: AUC(0-inf), descending. Response field: labels, in requested order.
### Response I, II, III
(I: 2260 ng·h/mL, II: 931 ng·h/mL, III: 92 ng·h/mL)

meta.source: patent US11358969B2
